System: LXRb:RXRa (NR concentration 270 nM, RXRa partner concentration 90 nM)
Procedure details: PBM binding z-score (relative to random genomic background probes); higher = stronger binding; sequences stand for … in GC…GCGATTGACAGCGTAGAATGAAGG
Recorded endpoint: PBM binding z-score
// response body must contain only the number

For orientation, consider the following solved cases.
- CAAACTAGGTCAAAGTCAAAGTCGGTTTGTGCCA: 2.64
- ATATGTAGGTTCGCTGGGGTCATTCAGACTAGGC: 4.28
- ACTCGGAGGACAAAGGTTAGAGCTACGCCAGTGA: 0.618
- CCTCGGAGTACAGAAGGTCAGAGCTGTCCGCTTT: 1.54

Return reported PBM binding z-score; argument: GCGGCTAGGTCAACTGATGGTCAGCTAAAGCTCG
1.99

Note, next up: GCTAGCAGGCCATTTGGGTCATTCAATGACGGGC
0.324

Note, next up: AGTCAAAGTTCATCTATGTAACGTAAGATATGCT
3.59

Note, next up: CTCGAAAGCTCGGTTGAGGTGAGTATACGGATAA
-0.393
